We begin with a simple list: items and their reported apparent KD of K4 kissing-loop reporter.
# Tested on: K4 kissing-loop RNA reporter;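 further: bound reporter read as fluorescence of individual clusters on recovered sequencing chips by microscopy, with normalized cluster intensities fitted with a binding model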
# protocol_description: apparent KD of K4 kissing-loop reporter; higher = weaker reporter binding
# condition_parameters: Eterna round: R107; input ligand: tryptophan 2.4 mM
Numeric answer only, unit nM assumed.

Examples from the recorded data:
UGUCAUGGAAACAUGAACGUUAAAAUAAAUCGAGGACCGGUACGGCCGCCACUCGUAUAGCGGUCAGUGAUGUUGACUGUAGUAA [KL-SSTryp-A form2 sub8]    96.8
AGACUUCACCGAAGGAGCGACGUGGUCUAGUGAUGUUAGACACGAGAGAAAUCUCGUAUACGUCAGGUAGGUCGCGGUGAAGUCA [Omei KL Arginine B SS C v9]    133
UGAUUUAACUGAAGGAGCGGCAAUUGAUAAGUAAAUAUAGUGAUGUUAUAUAAGAGAGAGAGCCAGGUAGGUCGCAGAGGGAGGA [ExArgB.I]    140

Exercise: If you can, please state the reported apparent KD of K4 kissing-loop reporter value of AAGUGAUGUUGUAGUGAUGUUGUGAUGUUGCAGGAUAUAUAGUGAUGUAGAAGGGUAAGUACUGAUGUUGUUAGUGAGUGAUGUU [wwzrrmullin] .
Key: 86.6

Exercise: Now the same for UGAUACCAGACGGCCGCCACUACACCAGUCAAAGACUGGAUGUGAUGUUCGACCAGUGAUGUUGGUAGGACCGGGUCUGGUAUCU [TrypBX 7 #Palindromic #SwitchBubble #StaticStem]
Key: 147

----------
# System: MS2 coat protein
# protocol_description: apparent KD of MS2 coat protein; higher = weaker reporter binding
# condition_parameters: Eterna round: R107; input ligand: theophylline 20 uM
We begin with a simple list: items and their reported apparent KD of MS2 coat protein.
Numeric answer only, unit nM assumed.

Examples from the recorded data:
AAUGAACAUGAGGAUCACCCAUGUCGUGAUACCAGCCGUAAGAGUGGCCCUUGGCAGCGCCAUGAGGACAACAACAUACAUGAGG [Same State Theophylline A]    29.7
UGUAACAUGAGGAUCACCCAUGUGAGUGAUACCAGAUAAGUAGUAGUCCCUUGGCAGCAUAUUGGGCGAGUGUAUAGUCUAUACG [Same State - Theophylline A (Freestyle 8)]    183
GAGUAGAGGACGGCCGCCACUGAACAUGAGGAUCACCCAUGUCGUGAUCCGUUGCCUGAAGAAGAUAGGACCGGGUCAUGUGCUC [Exclusion Tryptophan B GF 20]    44.7
UGUGUAAUUGUCUGGUAGAAUUAUUUGUUUCGAGGACCGGUACGGCCGCCACUCGAUAUUUACAUGAGGAUCACCCAUGUUAGCU [JR_SSTryptoA_Sub004]    14.3
UUAAAUGUGACGGAUACCAGCGUGUUGUAGAACAUGAGGAUCACCCAUGUAGUGAUCGAGCGCCCUUGGCAGCUGGUAUGUUUGA [7.Y]    365
UUCAGCUAGUCGGCCGCCACUACUUGAGGAUCACCCAGGUAGGUCCACACUGCUUCGGCAGUGAGUAGGACCGGGACUAGCUGAG    32.2
GGUGGCGUGACGGAUACCAGCCACCGCGGCAACGCAACAUGAGGAUCACCCAUGUUGGGUGGCCCUUGGCAGCUGUCGUGCGGCG [#1 Same State - Theophylline B Attempt #23 (HarryS)]    79.3
AGUCACAUGAGGAUCACCCAUGUGCCAGAACGAGGACCGGUACGGCCGCCACUCGAGGCGUCCGUCGACAAUAAUGUGAACUGCA [theeternabot_sameState_MS2_Trp_A_48]    16.7
AGGACGGUCGGAAGGAGCGGUACAUGAGGAUCACCCAUGUACUUCUGGGCAUCCGUAGAGUGCCAGGUAGGUCGCCGAUUGCGGG [XArg-B10]    17.5
CCCAGUCAUAGCAAAGCAAAUAUACUCGAAGGAGCGUCAUAGUAGGCAGGUAGGUCGCGAGACAUGAGGAUCACCCAUGUAGAGA [ooomullin]    46.7

Exercise: If you can, please state the reported apparent KD of MS2 coat protein value of GCCGCGGCCGCGAUACACAUGGGUGUGUAACGAGGACCGGUACGGCCGCCACUCGAGAUGAUGUACAUGAGGAUCACCCAUGUAC [Exclusion Tryp A GF13] .
Key: 15.4

Exercise: Now the same for AGUACAUGAGGAUCACCCAUGUGCCGGUAACGAGGACCGGUACGGCCGCCACUCGAUGUACCUCAAUUUGAUUGAGAUAAGAAAA [Anorbian]
Key: 57.6
